Consider the following substances; for each one, report its Retention Time.
# Method Description: RP-UPLC-MS/MS peptide profile, retention time
# Type: physicochemical
# Details: Poroshell 120 EC-C18, water/acetonitrile with 0.1% formic acid, B 1–13% in 6 min, 35% at 25 min, 100% at 35 min, 23 °C, 500 µL/min, early elution read as high polarity, late as higher hydrophobicity
Form entry: value (min) — number only.

// field: Retention Time; key: KLLSHCL [porcine hemoglobin fragment α 99–105] ; value = 8.01

// field: Retention Time; key: LANVSTVLTSKYR [porcine hemoglobin fragment α 129–141] ; value = 10.36

// field: Retention Time; key: SFSDGLKHLDNLKGTFA [porcine hemoglobin fragment β 71–87] ; value = 12.90

// field: Retention Time; key: NLSHGSDQVKAHGQKVADALTKAVGHLDDLPGAL [porcine hemoglobin fragment α 47–80] ; value = 15.89

// field: Retention Time; key: VLSAADKANVKAAWGKVGGQAGAHGAEALERM [porcine hemoglobin fragment α 1–32] ; value = 12.14

// field: Retention Time; key: KLLSHCLLVTLAAHHPD [porcine hemoglobin fragment α 99–115] ; value = 11.10

// field: Retention Time; key: ERMFLGFPTTKTYFPHF [porcine hemoglobin fragment α 30–46] ; value = 18.24

// field: Retention Time; key: HVDPENFRLLGNVIVVVLARRLGHDFNPNVQ [porcine hemoglobin fragment β 98–128, synthesized] ; value = 23.26

// field: Retention Time; key: LSDLHAHKLRVDPVNF [porcine hemoglobin fragment α 83–98] ; value = 10.23

// field: Retention Time; key: ANVSTVLTSKYR [porcine hemoglobin fragment α 130–141] ; value = 8.45

// field: Retention Time; key: FRLLGNVIVVVLARRLGHDFNPNVQ [porcine hemoglobin fragment β 104–128] ; value = 21.87

// field: Retention Time; key: FESFGDLSNAD [porcine hemoglobin fragment β 43–53] ; value = 12.20

// field: Retention Time; key: VLSAADKANVKAAWGKVGGQAGAHGAEA [porcine hemoglobin fragment α 1–28] ; value = 9.15

// field: Retention Time; key: SNADAVMGNPKVKAH [porcine hemoglobin fragment β 50–64] ; value = 9.91

// field: Retention Time; key: VLSAADKANVKAAWGKVGGQAGAHGAEAL [porcine hemoglobin fragment α 1–29] ; value = 10.86

// field: Retention Time; key: LERMFLGF [porcine hemoglobin fragment α 29–36] ; value = 17.60

// field: Retention Time; key: PNVQAAFQKVVAGVANALA [porcine hemoglobin fragment β 125–143] ; value = 11.10

// field: Retention Time; key: GAEALERMFLGFPT [porcine hemoglobin fragment α 25–38] ; value = 9.91
